- STUDY SYSTEM: P2X7 receptor (Homo sapiens)
- Construct: host or cells: THP-1 cells differentiated with LPS and IFN-γ
- Sequence (Q99572 1-595): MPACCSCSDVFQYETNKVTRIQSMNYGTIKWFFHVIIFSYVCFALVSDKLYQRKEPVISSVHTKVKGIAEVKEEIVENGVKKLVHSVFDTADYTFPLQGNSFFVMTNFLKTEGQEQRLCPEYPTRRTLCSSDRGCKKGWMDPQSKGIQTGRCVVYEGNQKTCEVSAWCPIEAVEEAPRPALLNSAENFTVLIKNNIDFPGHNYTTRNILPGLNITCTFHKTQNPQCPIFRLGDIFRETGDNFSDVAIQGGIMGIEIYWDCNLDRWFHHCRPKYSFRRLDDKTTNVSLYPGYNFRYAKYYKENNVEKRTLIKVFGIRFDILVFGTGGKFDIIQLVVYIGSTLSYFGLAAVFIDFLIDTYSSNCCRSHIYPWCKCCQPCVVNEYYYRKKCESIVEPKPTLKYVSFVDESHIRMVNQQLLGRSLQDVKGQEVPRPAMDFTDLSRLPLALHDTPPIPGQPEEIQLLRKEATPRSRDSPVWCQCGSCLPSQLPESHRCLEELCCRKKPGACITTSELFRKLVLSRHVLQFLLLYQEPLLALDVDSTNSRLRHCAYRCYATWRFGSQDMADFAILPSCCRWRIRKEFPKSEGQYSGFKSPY
- EXPERIMENT: IL-1β release assay in differentiated THP-1 cells stimulated with BzATP (Example 9)
- Type: cell-based
- Parameters: dose or concentration left out as unconfirmed
- CONDITION INFO: THP-1; read-out: IL-1β % Inhib.
The following molecules are shown together with reported inhibition values.

Cc1c(Cl)cccc1C(=O)Nc1cccc2c(=O)n(CCCN3CCCC3=O)ccc12 = 51 to 75%
COc1ccccc1CC(=O)Nc1cccc2c(=O)n(CCN(C)C)ccc12 = 0 to 25%
COCCn1ccc2c(NC(=O)c3ccc(C(C)(C)C)cc3)cccc2c1=O = 0 to 25%

Prompt: Give P2X7 receptor (Homo sapiens) inhibition for O=C(Nc1cccc2c(=O)n(Cc3ccc(OC(F)(F)F)cc3)ccc12)[C@@]12C[C@@H]3C[C@@H](C[C@@H]1C3)C2
Completion: 0 to 25%

---

The following compounds are shown together with reported inhibition at 0.3 µM values.
- STUDY SYSTEM: P2X7 receptor (Homo sapiens, UniProt Q99572)
- Construct: host or cells: THP-1 cells differentiated with LPS and IFN-γ
- Sequence (Q99572 1-595): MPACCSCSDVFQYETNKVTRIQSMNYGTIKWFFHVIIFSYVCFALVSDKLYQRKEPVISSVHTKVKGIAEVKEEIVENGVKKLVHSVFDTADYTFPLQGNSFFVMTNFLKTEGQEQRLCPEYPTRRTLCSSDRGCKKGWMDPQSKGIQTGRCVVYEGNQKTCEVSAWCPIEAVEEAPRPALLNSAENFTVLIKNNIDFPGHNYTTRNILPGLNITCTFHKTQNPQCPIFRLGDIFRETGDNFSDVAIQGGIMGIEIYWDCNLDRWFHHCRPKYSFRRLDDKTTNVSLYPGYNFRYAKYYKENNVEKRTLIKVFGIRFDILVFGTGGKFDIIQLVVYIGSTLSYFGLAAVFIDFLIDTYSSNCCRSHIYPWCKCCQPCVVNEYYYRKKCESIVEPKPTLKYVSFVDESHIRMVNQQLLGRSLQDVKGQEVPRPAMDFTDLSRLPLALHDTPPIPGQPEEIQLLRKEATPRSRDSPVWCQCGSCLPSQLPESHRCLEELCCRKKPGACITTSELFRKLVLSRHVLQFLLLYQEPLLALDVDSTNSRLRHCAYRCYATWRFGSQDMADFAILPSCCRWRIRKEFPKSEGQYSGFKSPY
- EXPERIMENT: IL-1β release assay in differentiated THP-1 cells stimulated with BzATP (Example 9)
- Format: cell-based
- CONDITION INFO: 0.3 μM compound; differentiated THP-1 cells, BzATP 250 uM; symbols + to ++++; read-out: IL-1β % Inhib. @ 0.3 μM

COCCn1ccc2c(NC(=O)Cc3ccc4c(c3)OCO4)cccc2c1=O [Compound 1321] = 0 to 25%
O=C(Nc1cccc2c(=O)n(CCN3CCOCC3)ccc12)c1ccc2c(c1)OCCCO2 [Compound 1225] = 0 to 25%
O=C(Cc1ccccc1F)Nc1cccc2c(=O)n(CCN3CCOCC3)ccc12 [Compound 1204] = 0 to 25%

Prompt: Bench note: what inhibition at 0.3 µM did Cc1cccc(CCC(=O)Nc2cccc3c(=O)n(CC(C)(C)C)ccc23)c1 [Compound 1284] show?
Completion: 0 to 25%

Prompt: Bench note: what inhibition at 0.3 µM did CCOc1ccccc1CC(=O)Nc1cccc2c(=O)n(Cc3cccnc3)ccc12 [Compound 1366] show?
Completion: 26 to 50%

Prompt: Bench note: what inhibition at 0.3 µM did CCOc1ccccc1CC(=O)Nc1cccc2c(=O)n(CC(C)(C)C)ccc12 [Compound 1280] show?
Completion: 0 to 25%

Prompt: Bench note: what inhibition at 0.3 µM did Cc1ccc(Cl)c(C(=O)Nc2cccc3c(=O)n(CCN4CCOCC4)ccc23)c1 [Compound 1235] show?
Completion: 0 to 25%

Prompt: Bench note: what inhibition at 0.3 µM did COCCn1ccc2c(NC(=O)c3cc4ccccc4o3)cccc2c1=O [Compound 1320] show?
Completion: 0 to 25%

Prompt: Bench note: what inhibition at 0.3 µM did CC(C)(C)Cn1ccc2c(NC(=O)Cc3ccccc3Cl)cccc2c1=O [Compound 1253] show?
Completion: 0 to 25%

Prompt: Bench note: what inhibition at 0.3 µM did COc1c(C)cc(C(=O)Nc2cccc3c(=O)n(CCN4CCOCC4)ccc23)cc1C [Compound 1219] show?
Completion: 26 to 50%

Prompt: Bench note: what inhibition at 0.3 µM did O=C(CCCc1ccccc1)Nc1cccc2c(=O)n(Cc3cccnc3)ccc12 [Compound 1357] show?
Completion: 0 to 25%

Prompt: Bench note: what inhibition at 0.3 µM did COc1ccc(C(=O)Nc2cccc3c(=O)n(CCN4CCOCC4)ccc23)cc1C [Compound 1240] show?
Completion: 26 to 50%

Prompt: Bench note: what inhibition at 0.3 µM did COc1ccccc1CC(=O)Nc1cccc2c(=O)n(CCN3CCOCC3)ccc12 [Compound 1206] show?
Completion: 0 to 25%

Measured values drawn from patent US8546579B2 for this set.
